- System: MDA-MB-231
- Test: NCI tumour cell line growth inhibition, 48 h
The source made the active and inactive calls. Cut-off read from the data, not from the text of the source: active = GI50 up to about 1.1 µM and inactive = higher.
Outcomes: Y for active, N for inactive

[[record]]
compound = "C1=CC2=CC=CC3c4nc5ccc6ccccc6c5nc4C(=C1)C23 (stereo not drawn)"
qualitative_label = "N"

[[record]]
compound = "CCCCCCCCCCCCOCC(COP(=O)(O)OCCN=[N+]=[N-])OC(=O)CCCCCCCCCCC (stereo not drawn)"
qualitative_label = "N"

[[record]]
compound = "COc1cccc2cc(C(=O)O)c(=O)oc12"
qualitative_label = "N"

[[record]]
compound = "Cc1c2cc[n+](C)cc2c(C)c2c1oc1ccccc12"
qualitative_label = "N"

[[record]]
compound = "CCOC(=O)Nc1sc2c(c1C#N)CCCC2"
qualitative_label = "N"

[[record]]
compound = "C=CC(c1ccccc1)C1(O)c2cccc(O)c2C(=O)c2c(O)cccc21 (stereo not drawn)"
qualitative_label = "N"

[[record]]
compound = "COc1ccc2c(c1O)[C@@]13C=C(O)C(=O)C=C1[C@@H](C2)N(C)CC3"
qualitative_label = "N"

[[record]]
compound = "CCN1C2=NCCN2S(=O)(=O)c2ccccc21"
qualitative_label = "N"

[[record]]
compound = "CNC(=O)c1nc[nH]c1/N=N/N(C)N"
qualitative_label = "N"

[[record]]
compound = "c1ccc(CNCCCNCCCCNCCCNCc2ccccc2)cc1"
qualitative_label = "N"

[[record]]
compound = "O=C(N/N=C1\\CCc2ccccc2C1)N/N=C1\\CCc2ccccc2C1"
qualitative_label = "N"

[[record]]
compound = "Cc1ccc(S(=O)(=O)/N=C2/N(C)CCCS2(=O)=O)cc1"
qualitative_label = "N"

[[record]]
compound = "CCOC(=O)c1cn2c(ccc3sc4ccccc4c(=O)c32)n1"
qualitative_label = "N"

[[record]]
compound = "OCC1OC(c2ccccc2)CC1O (stereo not drawn)"
qualitative_label = "N"

[[record]]
compound = "NCCCNOCCCN"
qualitative_label = "N"

[[record]]
compound = "CCOC(=O)c1c(SC(=O)c2ccc(C(C)(C)C)cc2)n(-c2ccccc2)c(=S)n(-c2ccccc2)c1=O"
qualitative_label = "N"

[[record]]
compound = "O=C1/C(=C\\c2ccco2)Oc2ccccc21"
qualitative_label = "N"

[[record]]
compound = "O=c1c(C(c2cc(OCc3ccccc3)cc(OCc3ccccc3)c2)c2c(O)oc3ccccc3c2=O)c(O)oc2ccccc12"
qualitative_label = "N"

[[record]]
compound = "CC(C)CN(CC#N)CC(C)C"
qualitative_label = "N"

[[record]]
compound = "CN/C(=N\\CCSCc1nc[nH]c1C)NC#N [CIMETIDINE]"
qualitative_label = "N"

[[record]]
compound = "COc1ccc2c(c1)[C@@H]1c3cc(OC)c(OC)cc3CCN1CCC2"
qualitative_label = "N"

[[record]]
compound = "Cc1ccc(/N=c2/oc3c(ccc4ccccc43)nc2Nc2ccc(C)cc2)cc1"
qualitative_label = "N"

[[record]]
compound = "COc1cc(O)c2c(c1)OCC1(Cc3cc(OC)c(OC)cc31)C2=O (stereo not drawn)"
qualitative_label = "N"

[[record]]
compound = "[O-][n+]1nc(N2CCOCC2)nc2ccccc21"
qualitative_label = "N"

[[record]]
compound = "C=C(C)C(=O)N1c2ccc(OC)cc2CC1C(=O)OCC (stereo not drawn)"
qualitative_label = "N"

[[record]]
compound = "COc1ccc2nccc(/C=C/c3ccc(N(C)C)cc3)c2c1"
qualitative_label = "N"

[[record]]
compound = "O=C(CC(=O)N(C(=O)c1ccccc1)c1ccc(Cl)cc1)N/N=C\\c1ccccc1O"
qualitative_label = "N"

[[record]]
compound = "CC(=O)Oc1ccc(OC(Oc2ccccc2)c2ccccc2)cc1 (stereo not drawn)"
qualitative_label = "N"

[[record]]
compound = "C[n+]1c2ccccc2c(CNC(CCC(N)=O)C(=O)O)c2ccccc21 (stereo not drawn)"
qualitative_label = "N"

[[record]]
compound = "O=[N+]([O-])c1ccc(Cl)cc1-n1nc(-c2ccccc2)cc1-c1ccccc1"
qualitative_label = "N"

[[record]]
compound = "Cc1c2cccc-2c(OCCO)cc2c3ccccc3n(C)c12"
qualitative_label = "N"

[[record]]
compound = "COc1cccc2cc(C(C)=O)c(=O)oc12"
qualitative_label = "N"

[[record]]
compound = "COc1ccc(N2C(=O)CS(=O)(=O)C2c2cccc(Oc3ccccc3)c2)cc1 (stereo not drawn)"
qualitative_label = "N"

[[record]]
compound = "CC1(CCCO)CCCCCCCCCC(C)(CCCO)C1=O (stereo not drawn)"
qualitative_label = "N"

[[record]]
compound = "C[Si](C)(OCCS(=O)(=O)O)C1(Cc2cccc3ccccc23)S(=O)(=O)OCCOS1(=O)=O"
qualitative_label = "N"

[[record]]
compound = "CCOP(=O)(OCC)/C(=C/c1cccs1)CC(C)=O"
qualitative_label = "N"

[[record]]
compound = "Cc1ccc(Nc2nc3[nH]ccc3c(=O)[nH]2)cc1"
qualitative_label = "N"

[[record]]
compound = "CN(C)c1ccc(C(=O)NCCCCCCC(=O)NO)cc1"
qualitative_label = "Y"


Every entry's value here was drawn from ChEMBL document CHEMBL1201862.
